The reported numbers originate from paper PMC12040169.

assay: in vitro; conditions: human, hela cells, % viability
quantity-name: viability at 28.5 h, 10 µM (%)
The reply should contain only the number, in %.

Consider the compound shown here: `Cc1ncccc1-c1cc2cccnc2n1CCCNC(=O)C1CC1` What is its recorded viability at 28.5 h, 10 µM? 81.5

Consider the compound shown here: `CC(C)NC(=S)NC(=O)C1CCC1` What is its recorded viability at 28.5 h, 10 µM? 86.2

Consider the compound shown here: O=C(O)CC(C(=O)O)N1C(=O)/C(=C\C(Cl)=C/c2ccc([N+](=O)[O-])cc2)SC1=S (centres unmarked) What is its recorded viability at 28.5 h, 10 µM? 99.2

Consider the compound shown here: `CCC(CC)(CC(=O)Nc1ccc2nc(C)sc2c1)C(=O)O` What is its recorded viability at 28.5 h, 10 µM? 112

Consider the compound shown here: `COc1ccc(CCNc2oc(COc3ccccc3)nc2C#N)cc1` What is its recorded viability at 28.5 h, 10 µM? 90.2

Consider the compound shown here: `COc1ccccc1N1CCN(C(=O)CCC(=O)c2cccs2)CC1` What is its recorded viability at 28.5 h, 10 µM? 109

Further cases:
Consider the compound shown here: NC12CC(=O)CC(CC(c3ccccc3)C1)C2 (centres unmarked) [CBK010323C] What is its recorded viability at 28.5 h, 10 µM? 114

Consider the compound shown here: O=C(CN1CCCC1Cn1cccn1)N1CCCc2ccccc21 (centres unmarked) What is its recorded viability at 28.5 h, 10 µM? 89

Consider the compound shown here: COc1ccc(CCNC(=O)N2CCCC(C(=O)O)C2)cc1 (centres unmarked) What is its recorded viability at 28.5 h, 10 µM? 101

Consider the compound shown here: `CCn1c(CCCNC=O)nc2ccccc21` What is its recorded viability at 28.5 h, 10 µM? 86.2

Consider the compound shown here: `COc1ccc(C(=O)N2CC[C@H]3NC(=O)N(Cc4ccccc4)C(=O)[C@H]32)cc1` What is its recorded viability at 28.5 h, 10 µM? 94.1

Consider the compound shown here: `Cc1cn([C@H]2C[C@@H](O)[C@@H](CN)O2)c(=O)[nH]c1=O` What is its recorded viability at 28.5 h, 10 µM? 96.2

Consider the compound shown here: N#Cc1cc(Cl)ccc1CN1CCCCC1c1[nH]ncc1C(N)=O (centres unmarked) What is its recorded viability at 28.5 h, 10 µM? 88.5

Consider the compound shown here: COc1ccc(C(=O)C2=C(O)C(=O)N(Cc3cccnc3)C2c2ccc(N(C)C)cc2)cc1 (centres unmarked) What is its recorded viability at 28.5 h, 10 µM? 85.9

Consider the compound shown here: CC1CCN(C(=O)C2C3CCC4(CC(=O)c5ccccc5O4)C32)CC1 (centres unmarked) What is its recorded viability at 28.5 h, 10 µM? 98.7

Consider the compound shown here: Cc1nnc(N2C(=O)c3oc4ccccc4c(=O)c3C2c2ccc(OCc3ccccc3)cc2)s1 (centres unmarked) What is its recorded viability at 28.5 h, 10 µM? 94.9

Consider the compound shown here: `COc1ccc(Nc2ccc(-c3cccc(OC(F)(F)F)c3)cn2)cn1` What is its recorded viability at 28.5 h, 10 µM? 100

Consider the compound shown here: `O=C(C1CCC1)N1CCC(n2nc(C3CC3)ccc2=O)CC1` What is its recorded viability at 28.5 h, 10 µM? 104

Consider the compound shown here: `O=C(O)c1ccc(COc2cccc(/C=N\O)c2)cc1` What is its recorded viability at 28.5 h, 10 µM? 91.9

Consider the compound shown here: `O=C(O)c1cn(C2CC2)c2cc(N3CCN(C(=O)Cc4ccccc4Cl)CC3)c(F)cc2c1=O` What is its recorded viability at 28.5 h, 10 µM? 90.4

Consider the compound shown here: `Cc1nc(CN2CCN(c3ccc4nnc(C(F)(F)F)n4n3)CC2)cs1` What is its recorded viability at 28.5 h, 10 µM? 95.1

Consider the compound shown here: COc1cccc(CNCC(c2ccnn2C)C(C)C)n1 (centres unmarked) What is its recorded viability at 28.5 h, 10 µM? 105

Consider the compound shown here: `O=C(c1ccc(-c2ccc(F)cc2)o1)N1C[C@H]2CC[C@](O)(c3ccc(F)cc3)[C@H]2C1` What is its recorded viability at 28.5 h, 10 µM? 94.1

Consider the compound shown here: `O=S(=O)(Nc1cccnc1N1CCOCC1)c1ccc(F)cc1` What is its recorded viability at 28.5 h, 10 µM? 96.4
